System: RXF 393 renal
METHOD DESCRIPTION: NCI tumour cell line growth inhibition, 48 h
Some compounds, each annotated with its measured TGI.
Number in µM, nothing else.

q: What measured TGI is associated with O=C(/C=C/c1ccco1)c1cc(F)c(Cl)cc1Cl on RXF 393 renal?
a: 37.7

q: // map CC(C)(C)n1c(=O)n2n(c1=O)Cc1cccc3cccc(c13)C2 to recorded TGI (system: RXF 393 renal)
a: 27.1

q: Requested read-out TGI, target or system RXF 393 renal, entry Nc1ccccc1NC(=O)c1ccc(CNc2nccc(-c3cccnc3)n2)cc1
a: 3.01

q: // fetch RXF 393 renal TGI for CC[C@@H]1[C@@H](C)O[C@@](O)([C@@H](C)[C@H](O)[C@H](C)[C@H]2OC(=O)/C=C/C=C/[C@H](C)[C@@H]([C@@H](C)[C@@H](O)[C@H](C)[C@@]3(O)C[C@@H](O[C@H]4C[C@@H](O)[C@H](O)C(C)O4)[C@H](CC)[C@@H](C)O3)OC(=O)/C=C/C=C/[C@@H]2C)C[C@H]1O[C@@H]1C[C@@H](O)[C@H](O)C(C)O1 (stereo partly drawn)
a: 0.119

q: Can you look up TGI on RXF 393 renal for Cc1cc(Nc2ccc(OCc3ccccc3)cc2)nc2cc(O)ccc12 ?
a: 12.1

====

Test system: OVCAR-8 ovarian
METHOD DESCRIPTION: NCI tumour cell line growth inhibition, 48 h
Consider the following molecules and their measured TGI readings.
Lab book: enter the figure in µM, no units written.

Answered cases to consult:
>  <MOLECULE>
COc1cc2c(cc1C[C@H]1[C@@H]3C[C@H]4c5c(c6ccccc6n5C)C[C@@H]([C@@H]3CO[C@]1(C)OC(C)=O)N4C)c1c(n2C)C2C[C@H]3C(C(C)=O)=COC[C@H]3[C@H](C1)N2C

>  <TGT>
OVCAR-8 ovarian

>  <UNIT ABBREVIATION>
µM

>  <EXPERIMENTAL RESULT>
8.83

$$$$
>  <MOLECULE>
COC1C(CO)OC(n2c3ccccc3c3c4c(c5c6ccccc6[nH]c5c32)C(=O)NC4=O)C(O)C1O (stereo not drawn)

>  <TGT>
OVCAR-8 ovarian

>  <UNIT ABBREVIATION>
µM

>  <EXPERIMENTAL RESULT>
1.48

$$$$

q: Look up TGI for this molecule: C=CCc1[nH]c2c(OCc3ccccc3)cc(N(CC=C)C(C)=O)cc2c1C
a: 27.4

q: For the molecule Cc1cc([N+](=O)[O-])ccc1NC(=O)C(=O)C(C(=O)c1ccccc1-c1ccccc1)C1OC(=O)c2ccccc21 (stereo not drawn) , what TGI is on record?
a: 77.1

====

We begin with a simple list: items and their reported TGI.
System: SK-MEL-2 melanoma
METHOD DESCRIPTION: NCI tumour cell line growth inhibition, 48 h

Answered examples (5):
>  <MOLECULE>
C1=NCCN2CCN(CCN=Cc3ccccc3OCc3cccc(n3)COc3ccccc31)CC2

>  <TGT>
SK-MEL-2 melanoma

>  <TGI>
> 50 µM

$$$$
>  <MOLECULE>
O=C1/C(=C\c2ccc(F)cc2)CN(C(=O)c2ccccc2)C/C1=C\c1ccc(F)cc1

>  <TGT>
SK-MEL-2 melanoma

>  <TGI>
19.5 µM

$$$$
>  <MOLECULE>
COc1cc(/C=C2/SC(c3ccccc3)N(Cc3ccccc3)C2=O)cc(OC)c1OC (stereo unspecified)

>  <TGT>
SK-MEL-2 melanoma

>  <TGI>
> 100 µM

$$$$
>  <MOLECULE>
CCCCc1ccc(Nc2nc(Cl)c3ncn(COCCOC(C)=O)c3n2)cc1

>  <TGT>
SK-MEL-2 melanoma

>  <TGI>
31.5 µM

$$$$
>  <MOLECULE>
Cc1ccc2c(=O)cc(Cc3cccs3)[nH]c2n1

>  <TGT>
SK-MEL-2 melanoma

>  <TGI>
> 100 µM

$$$$

Then this molecule:
q: Look up TGI: COc1c(C)cc(O)cc1C=O
a: > 100 µM

====

Collected TGI values appear next to each entry.
Test system: CAKI-1 renal
METHOD DESCRIPTION: NCI tumour cell line growth inhibition, 48 h
API: value field is a number in µM; no unit string.

>  <MOLECULE>
COc1ccccc1NC(=O)C1=C(C)NC(C)=C(C(=O)Nc2ccccc2OC)C1C1=CC=COC1

>  <TGI, µM>
56.8

$$$$
>  <MOLECULE>
Cc1cc([N+](=O)[O-])ccc1NC(=O)C(=O)C(C(=O)c1ccccc1-c1ccccc1)C1OC(=O)c2ccccc21 (stereo not drawn)

>  <TGI, µM>
59.5

$$$$
>  <MOLECULE>
COc1cc2c(cc1C[C@H]1[C@@H]3C[C@H]4c5c(c6ccccc6n5C)C[C@@H]([C@@H]3CO[C@]1(C)OC(C)=O)N4C)c1c(n2C)C2C[C@H]3C(C(C)=O)=COC[C@H]3[C@H](C1)N2C

>  <TGI, µM>
9.06

$$$$
>  <MOLECULE>
CCCCCCCCCCCCCCCCCCNc1ccn(C2OC(COP(=O)(O)OCC3OC(n4cc(C)c(=O)[nH]c4=O)CC3F)C(O)C2O)c(=O)n1 (stereo not drawn)

>  <TGI, µM>
16.8

$$$$

Alright, here's another molecule for you.
q: Report TGI for NC(=S)N/N=C/c1nccc2ccccc12 please.
a: 58.7

====

System: KM12 colon
METHOD DESCRIPTION: NCI tumour cell line growth inhibition, 48 h; in the data active means GI50 below about 0.43 µM; inactive means the rest
Your response should consist of one outcome taken from YES for active, NO for inactive

>  <MOLECULE>
O=C(COc1ccc(/C=C2\COc3ccccc3C2=O)cc1)Nc1nccs1

>  <CAT>
NO

$$$$
>  <MOLECULE>
CCCCCCCC/C=C/CCCCCCCC1=NC(C)(C)CN1CC(C)O (stereo unspecified)

>  <CAT>
NO

$$$$
>  <MOLECULE>
COC1=CC(c2ccc[nH]2)=N/C1=C\c1[nH]c(C)c(CC(=O)OCc2ccccc2)c1CCC(=O)OCc1ccccc1

>  <CAT>
YES

$$$$

q: Kindly provide the recorded test outcome for the following molecule: CSc1ccc(-c2ccccc(=O)c2O)cc1
a: NO

q: Outcome? COc1cc([C@@H]2c3cc4c(c(O)c3C[C@H]3COC(=O)[C@@H]32)OCO4)cc(OC)c1OC
a: YES

q: Assay result, entry COc1cc2nccc(Oc3ccc(NC(=O)NC4CC4)c(Cl)c3)c2cc1C(N)=O — outcome?
a: NO

====

System: A549 NSCLC
METHOD DESCRIPTION: NCI tumour cell line growth inhibition, 48 h
REPORTED ENDPOINT: TGI

>  <MOLECULE>
CC(C)(C)OC(=O)N[C@H]1CC(O)c2ccccc2N(CC(=O)O)C1=O (stereo partly specified)

>  <TGI>
> 100 µM

$$$$
>  <MOLECULE>
COC(=O)CCC(C)[C@H]1CCC2C3C(C[C@H](OC(C)=O)[C@@]21C)[C@@]1(C)CCC2(C[C@H]1C[C@H]3OC(C)=O)OOC1(CCCC1)OO2 (stereo partly specified)

>  <TGI>
> 100 µM

$$$$
>  <MOLECULE>
Nc1cc(F)ccc1CC(=O)O

>  <TGI>
> 100 µM

$$$$
>  <MOLECULE>
Cc1nc2c(c(=O)[nH]1)S/C(=C(/C#N)c1nc3ccccc3[nH]1)N2c1ccccc1

>  <TGI>
> 100 µM

$$$$
>  <MOLECULE>
N#Cc1c(NC(=O)NCc2ccccc2)sc2c1CCCC2

>  <TGI>
> 100 µM

$$$$
>  <MOLECULE>
Cc1cccc(-c2[nH]ncc2-c2ccc3ncccc3n2)n1

>  <TGI>
> 25 µM

$$$$
>  <MOLECULE>
C=CCNC(=S)N=Nc1c(O)n(CN2CCOCC2)c2ccc([N+](=O)[O-])cc12

>  <TGI>
> 100 µM

$$$$
>  <MOLECULE>
CCOC(=O)c1ccccc1OC(=O)NNc1ccccc1

>  <TGI>
> 100 µM

$$$$

q: Can you look up the measured TGI of CCOC(=O)C1SC(=Nc2cccc(Cl)c2C)N=C1C (stereo unspecified) for me?
a: 60.4 µM

q: Need TGI, item CC1=NN(c2nc(N)nc(CBr)n2)C(C)(C)C1
a: 37.1 µM

q: Fill blank: measured TGI of the molecule CCOc1ccc2nc3nc(=O)[nH]c(C)c3c(NCCCN(CC)CC)c2c1 is ____.
a: > 100 µM

====

Documented TGI across a set of compounds
System: MDA-MB-231 breast
METHOD DESCRIPTION: NCI tumour cell line growth inhibition, 48 h

>  <LINE NOTATION>
O=C(O)/C=C/C(=O)N1Cc2cc3ccccc3nc2C1

>  <EXPERIMENTAL RESULT>
> 100 µM

$$$$
>  <LINE NOTATION>
Cc1cc(=O)[nH]c(N/N=C/c2cc(Br)ccc2O)n1

>  <EXPERIMENTAL RESULT>
> 100 µM

$$$$
>  <LINE NOTATION>
COc1cc(/C=C2\C[C@H]3[C@@H]4CC=C5C[C@@H](O)CC[C@]5(C)[C@H]4CC[C@]3(C)[C@H]2O)ccc1OCCN1CCCC1

>  <EXPERIMENTAL RESULT>
23 µM

$$$$
>  <LINE NOTATION>
O=C1NC(=S)N/C1=C\c1cc2c(=O)c3ccccc3sc2s1

>  <EXPERIMENTAL RESULT>
> 100 µM

$$$$

We next turn to a different compound, shown below.
q: Return reported TGI; argument: O=c1[nH]nc(Cc2ccc(Cl)cc2)n1/N=C/c1ccco1
a: > 100 µM
